Where do the numbers come from? From patent US12384770B2.

STUDY_TARGET: HDAC6 enzyme (Homo sapiens)
Construct: HDAC6 enzyme prepared by transducing full length HDAC6 gene into Sf-9 insect cells; GST; purchased SignalChem; host or cells: Sf-9 insect cells
Sequence (Q9UBN7 whole entry): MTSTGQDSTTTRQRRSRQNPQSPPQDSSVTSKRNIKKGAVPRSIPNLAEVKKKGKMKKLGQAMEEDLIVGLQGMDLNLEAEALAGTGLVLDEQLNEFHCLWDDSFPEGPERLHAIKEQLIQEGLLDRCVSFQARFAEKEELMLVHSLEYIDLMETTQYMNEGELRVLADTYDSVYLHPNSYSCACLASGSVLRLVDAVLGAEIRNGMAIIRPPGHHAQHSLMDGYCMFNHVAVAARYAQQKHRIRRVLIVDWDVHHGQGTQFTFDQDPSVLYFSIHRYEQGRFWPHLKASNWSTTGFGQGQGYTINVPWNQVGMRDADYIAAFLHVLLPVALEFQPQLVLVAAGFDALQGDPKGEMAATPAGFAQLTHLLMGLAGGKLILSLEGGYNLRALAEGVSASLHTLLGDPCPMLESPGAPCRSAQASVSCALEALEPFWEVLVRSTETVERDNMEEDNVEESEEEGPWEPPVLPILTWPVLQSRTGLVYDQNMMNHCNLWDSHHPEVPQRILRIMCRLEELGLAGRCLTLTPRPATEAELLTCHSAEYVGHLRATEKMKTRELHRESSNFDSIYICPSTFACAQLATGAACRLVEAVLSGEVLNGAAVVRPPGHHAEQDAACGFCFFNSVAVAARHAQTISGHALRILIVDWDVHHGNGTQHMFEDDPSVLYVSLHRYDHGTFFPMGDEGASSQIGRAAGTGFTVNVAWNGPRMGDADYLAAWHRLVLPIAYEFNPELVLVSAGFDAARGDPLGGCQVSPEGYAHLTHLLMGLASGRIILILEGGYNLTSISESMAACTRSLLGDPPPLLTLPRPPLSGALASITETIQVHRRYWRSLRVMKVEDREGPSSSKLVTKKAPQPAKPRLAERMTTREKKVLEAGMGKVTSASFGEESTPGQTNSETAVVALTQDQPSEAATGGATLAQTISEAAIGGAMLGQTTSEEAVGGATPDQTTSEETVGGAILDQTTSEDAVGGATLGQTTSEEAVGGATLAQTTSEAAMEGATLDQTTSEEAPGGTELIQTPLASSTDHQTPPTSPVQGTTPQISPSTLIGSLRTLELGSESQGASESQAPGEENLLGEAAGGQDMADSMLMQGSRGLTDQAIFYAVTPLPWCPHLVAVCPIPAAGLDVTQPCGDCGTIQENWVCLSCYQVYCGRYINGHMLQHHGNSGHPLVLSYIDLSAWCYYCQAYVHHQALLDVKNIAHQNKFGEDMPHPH
TEST_PROTOCOL: HDAC6 enzyme inhibitory assay (HDAC-Glo I/II Assay kit)
Format: biochemical
TEST_CONTEXT: wells without enzyme = 100% inhibition
Below: a set of entries, each annotated with reported HDAC6 inhibitory rate (%) (10 μM).
Field: numeric (%). Do not append units.

O=C1c2cc(-c3nnc(C(F)F)o3)ccc2CN1[C@H](c1ccccn1)[C@@H](O)c1ccccc1 (single isomer, unassigned) = 100
O=C1c2cc(-c3nnc(C(F)F)o3)ccc2CN1[C@H](c1cnccn1)[C@@H](O)c1ccc(F)c(F)c1 (single isomer, unassigned) = 100

Next compound, HDAC6 inhibitory rate (%) (10 μM) to be filled in.
Which value of HDAC6 inhibitory rate (%) (10 μM) has been reported for O=C1c2cc(-c3nnc(C(F)F)o3)ccc2CN1[C@H](c1ccc(F)nc1)[C@@H](O)c1ccc(F)cc1 (single isomer, unassigned) in the records?
100
